# measuredTarget: IDO1 enzyme (Homo sapiens)
# Sequence (P14902 whole entry): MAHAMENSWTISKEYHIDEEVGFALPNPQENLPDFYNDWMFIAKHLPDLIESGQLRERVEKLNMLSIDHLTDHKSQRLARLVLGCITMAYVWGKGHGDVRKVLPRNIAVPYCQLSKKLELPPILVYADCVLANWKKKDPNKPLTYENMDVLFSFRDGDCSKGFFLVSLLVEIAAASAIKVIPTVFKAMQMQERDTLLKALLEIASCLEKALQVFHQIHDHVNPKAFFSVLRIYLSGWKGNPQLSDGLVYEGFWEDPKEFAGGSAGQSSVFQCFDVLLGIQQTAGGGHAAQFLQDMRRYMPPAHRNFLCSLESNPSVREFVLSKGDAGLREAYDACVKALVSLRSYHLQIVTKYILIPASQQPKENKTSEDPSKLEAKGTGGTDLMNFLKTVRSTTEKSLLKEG
# testSummary: Determination of biochemical activity of IDO1 enzyme (absorbance at 320 nm)
# conditionInfo: room temperature, 3 hours
molecules and their reported IC50

Solved cases below.
1) N=C(Nc1ccc(N)cc1)Nc1nonc1/C(=N/O)Nc1ccc(F)c(Br)c1 [Embodiment 142] | < 0.001 µM
2) N=C(Nc1ccccc1)Nc1nocc1/C(=N/O)Nc1ccc(F)c(Br)c1 [Embodiment 158] | 0.1 to 1 µM
3) COc1cccc(NC(=O)Nc2nocc2/C(=N/O)Nc2ccc(F)c(Br)c2)c1 [Embodiment 80] | > 1 µM

Form field IC50, entry O=C(Nc1nonc1/C(=N/O)Nc1ccc(F)cc1)NC1CCC(O)CC1 (stereo not drawn) [Embodiment 55] : < 0.001 µM

Form field IC50, entry O=C(Nc1ccccc1)Nc1nonc1/C(=N/O)Nc1ccc(F)cc1 [Embodiment 51] : 0.1 to 1 µM

Form field IC50, entry O=C(Nc1cocc1/C(=N/O)Nc1ccc(F)c(Br)c1)NC1CCNCC1 [Embodiment 64] : 0.1 to 1 µM

Form field IC50, entry O=C(Nc1cocc1/C(=N/O)Nc1ccc(F)c(Br)c1)NC1CCC(O)CC1 (stereo not drawn) [Embodiment 63] : < 0.001 µM

Form field IC50, entry COc1ccc(NC(=N)Nc2nonc2/C(=N/O)Nc2ccc(F)c(Br)c2)cc1 [Embodiment 139] : < 0.001 µM

Form field IC50, entry O=C(Nc1ccncn1)Nc1nonc1/C(=N/O)Nc1ccc(F)c(Br)c1 [Embodiment 45] : > 1 µM

Form field IC50, entry O=C(Nc1conc1/C(=N/O)Nc1ccc(F)c(Cl)c1)NC1CCCCC1 [Embodiment 114] : < 0.001 µM

Form field IC50, entry O=C(Nc1nonc1/C(=N/O)Nc1ccc(F)c(Br)c1)NC1CCCC1 [Embodiment 8] : 0.1 to 1 µM

Form field IC50, entry N=C(Nc1nocc1/C(=N/O)Nc1ccc(F)c(Br)c1)NC1CCCCC1 [Embodiment 159] : 0.1 to 1 µM

Form field IC50, entry COc1ccc(NC(=O)Nc2nocc2/C(=N/O)Nc2ccc(F)c(Br)c2)cc1 [Embodiment 79] : 0.1 to 1 µM

Form field IC50, entry O=C(NCCCO)Nc1nonc1/C(=N/O)Nc1ccc(F)c(Br)c1 [Embodiment 13] : < 0.001 µM

Form field IC50, entry NC1CCC(NC(=O)Nc2conc2/C(=N/O)Nc2ccc(F)c(Br)c2)CC1 (stereo not drawn) [Embodiment 108] : 0.1 to 1 µM

Form field IC50, entry N=C(Nc1ccccc1)Nc1conc1/C(=N/O)Nc1ccc(F)c(Cl)c1 [Embodiment 155] : 0.1 to 1 µM

Form field IC50, entry O=C(NCCO)Nc1conc1/C(=N/O)Nc1ccc(F)c(Br)c1 [Embodiment 110] : < 0.001 µM

Form field IC50, entry O=C(Nc1nonc1/C(=N/O)Nc1ccc(F)c(Br)c1)NC1CCNCC1 [Embodiment 11] : < 0.001 µM
